// SARS-CoV-2 Main Protease (SARS-CoV-2) log10 of IC50 records
All values: log10 IC50 [µM].

The cases that follow already have their log10 of IC50 on record.
Compound: NS(=O)(=O)CCc1ccccc1CN1CCN(C(=O)CCl)CC1
Recorded Result: 0.43
//
Compound: O=C(CN1CC2(CCN(c3cncc4ccccc34)C2=O)c2cc(Cl)ccc2S1(=O)=O)NCC1CC1 (stereo not given)
Recorded Result: -0.69
//
Compound: O=C(Cc1cc(Cl)cc(Nc2ccc(OCc3ccccc3)cc2)c1)Nc1cncc2ccccc12
Recorded Result: 0.92
//
Compound: O=C(CCl)N1CCN(Cc2cc(O)ccc2O)CC1
Recorded Result: 1.57

From here, focus on the item given below.
Input line: Can you look up the measured log10 of IC50 of N#Cc1ccc(Nc2cc(Cl)cc(CC(=O)Nc3cncc4ccccc34)c2)c(I)c1 for me?
Output line: 0.21

###

// SARS-CoV-2 Main Protease (SARS-CoV-2) (UniProt P0DTD1) IC50 records
State the answer as a number, implicitly in µM.

The cases that follow already have their IC50 on record.
Molecule: O=C(NCCc1cccc(F)c1)C(c1cccnc1)N(C(=O)c1cocn1)c1ccc2scnc2c1 (stereo not given)
IC50 (µM): 84
--
Molecule: O=C(Cc1cncc2ccccc12)N(CCC1CCCCC1)c1cccc(Cl)c1
IC50 (µM): 2.11
--
Molecule: COCc1ccc(N(C(=O)c2cnc[nH]2)C(C(=O)NCCc2cccc(F)c2)c2cccnc2)cc1 (stereo not given)
IC50 (µM): 62.9

From here, focus on the item given below.
Input line: Can you look up the measured IC50 of N#Cc1cnn(C(=O)c2cccs2)c1C1CC1 for me?
Output line: 3.24

###

// UniProtKB P0DTD1 pIC50 records
pIC50 is defined as minus the log10 of a concentration measured in mol/L.

Molecule: O=C(Nc1cncc2ccccc12)C1c2cc(Cl)ccc2CCN1S(=O)(=O)C1CC1 (stereo not given)
Readout: pIC50
Recorded Result: 5.94

Input line: Param readout= pIC50; system= UniProtKB P0DTD1; entry= COc1ccc(Nc2cc(Cl)cc(CC(=O)Nc3cncc4ccccc34)c2)c([N+](=O)[O-])c1 ; returns value.
Output line: 5.67

Input line: For Cc1ccncc1NC(=O)Cc1cc(Cl)cc(-c2cnn(C)c2C(F)F)c1 then?
Output line: 4.71

Input line: For O=C1NC[C@@H](C(=O)Nc2cncc3ccccc23)c2cc(Cl)ccc21 (stereo in doubt) then?
Output line: 4.00

###

// SARS-CoV-2 Main Protease (SARS-CoV-2) pIC50 records
pIC50 is defined as minus the log10 of a concentration measured in mol/L.

The cases that follow already have their pIC50 on record.
Compound: O=C(Cc1cccc(Cl)c1)Nc1cncc2cnoc12
pIC50: 4.62

Compound: Cc1ccncc1NC(=O)Cc1cc(Cl)cc(-c2ccc(C3CC3(F)F)cc2)c1 (stereo not given)
pIC50: 5.07

Compound: O=C(Cc1cccc(Cl)c1)Nc1cncc2c1CCCN2
pIC50: 5.14

Input line: Param readout= pIC50; system= SARS-CoV-2 Main Protease (SARS-CoV-2); entry= CCn1nccc1C(=O)N1Cc2ccc(Cl)cc2C2(CCN(c3cncc4ccccc34)C2=O)C1 (stereo not given) ; returns value.
Output line: 6.53

Input line: For CN1CCN(c2cc(Cl)cc(CC(=O)Nc3cncc4ccccc34)c2)[C@H](c2ccccc2)C1 (stereo in doubt) then?
Output line: 5.74

###

Items are presented alongside their recorded pIC50.
# Subject Of Test: SARS-CoV-2 Main Protease (SARS-CoV-2) (UniProt P0DTD1)
pIC50 is defined as minus the log10 of a concentration measured in mol/L.

The cases that follow already have their pIC50 on record.
Compound: O=C(Cc1cc(Cl)cc(Nc2nnc(Cl)cc2Br)c1)Nc1cncc2ccccc12
pIC50: 5.74
//
Compound: CNC(=O)C1(N2Cc3ccc(Cl)cc3C3(CCN(c4cncc5ccc(OCCN(C)C)cc45)C3=O)C2)CC1 (stereo not given)
pIC50: 6.21
//
Compound: COCC1(C(=O)Nc2cncc3ccccc23)CCOc2cc(Cl)c(Cl)cc21 (stereo not given)
pIC50: 5.39
//
Compound: O=C(Cc1cccc(Cl)c1)Nc1cncc2c1CCC2
pIC50: 5.29
//
Compound: Cc1cc(C(=O)N2Cc3ccc(Cl)cc3C3(CCN(c4cncc5ccccc45)C3=O)C2)n(C)n1 (stereo not given)
pIC50: 6.33
//
Compound: O=C(Cc1cc(Cl)cc(Nc2cc(Cl)c(Br)cn2)c1)Nc1cncc2ccccc12
pIC50: 5.71

Input line: Can you look up the measured pIC50 of Cc1ccn2c(NC(=O)Cc3cccc(Cl)c3)cnc2c1 for me?
Output line: 4.71

Input line: For COCCN(C)S(=O)(=O)N1Cc2ccc(Cl)cc2C2(CCN(c3cncc4ccccc34)C2=O)C1 (stereo not given) then?
Output line: 6.00

Input line: For Cc1ccncc1NC(=O)N(Cc1ccccc1)c1cccc(Cl)c1 then?
Output line: 4.64

Input line: For COC(=O)[C@H]1CC[C@@H](CNC(C(=O)Nc2cncc3ccccc23)c2cccc(Cl)c2)O1 (stereo in doubt) then?
Output line: 5.76

Input line: For O=C(Nc1cncc2ccccc12)N(CCC1CCCCC1)c1cccc(Cl)c1 then?
Output line: 6.58

Input line: For CCNC(=O)CN1CC2(CCN(c3cncc4ccccc34)C2=O)c2cc(Cl)ccc2S1(=O)=O (stereo not given) then?
Output line: 6.56

Input line: For O=C(Nc1cncc2sc(Cl)cc12)C1CCOc2ccc(Cl)cc21 (stereo not given) then?
Output line: 5.99

###

pIC50: −log10 of the molar value.
// SARS-CoV-2 Main Protease (SARS-CoV-2) pIC50 records

Molecule: O=C(Cc1cccc(Cl)c1)NC1CCCNC1=O (stereo not drawn)
Subject Of Test: SARS-CoV-2 Main Protease (SARS-CoV-2)
Readout: pIC50
Recorded Result: < 4.00
//
Molecule: Cc1ccc2ncnc(NCc3ccc4nonc4c3)c2c1
Subject Of Test: SARS-CoV-2 Main Protease (SARS-CoV-2)
Readout: pIC50
Recorded Result: < 4.00

From here, focus on the item given below.
Input line: Param readout= pIC50; system= SARS-CoV-2 Main Protease (SARS-CoV-2); entry= C=CC(=O)Nc1cc(C(=O)NC[C@H](Cc2ccccc2)c2ccccn2)ccc1O (stereo in doubt) ; returns value.
Output line: < 4.00

###

// SARS-CoV-2 Main Protease (SARS-CoV-2) (UniProt P0DTD1) pIC50 records
pIC50: −log10 of the molar value.

The cases that follow already have their pIC50 on record.
Compound: C=CC(=O)N1CCN(S(=O)(=O)c2cccc(F)c2)CC1
pIC50: < 4.00

Compound: COc1ccccc1OC1CCN(C(=O)c2cc(=O)[nH]c3ccccc23)C1 (stereo not drawn)
pIC50: < 4.00

From here, focus on the item given below.
Input line: Can you look up the measured pIC50 of O=C1CCCN1Cc1cccc(C(=O)N2CCC(C3CCNC3)CC2)c1 (stereo not drawn) for me?
Output line: < 4.00

###

# Subject Of Test: SARS-CoV-2 Main Protease (SARS-CoV-2) (UniProt P0DTD1)
Items are presented alongside their recorded IC50.
State the answer as a number, implicitly in µM.

Compound: N#CC1(CS(=O)(=O)N2Cc3ccc(Cl)cc3[C@@H](C(=O)Nc3cncc4ccccc34)C2)CCOCC1 (stereo in doubt)
Recorded Result: 15.2
//
Compound: Cc1ccc2cncc(NC(=O)Cc3cccc(Cl)c3)c2c1
Recorded Result: 0.537
//
Compound: O=C(Cc1cc(Cl)cc(Nc2cccc(Br)n2)c1)Nc1cncc2ccccc12
Recorded Result: 1.92
//
Compound: Cc1ncc(CN2CC(C(=O)Nc3cncc4cc(S(C)(=O)=O)ccc34)c3cc(Cl)ccc3C2=O)[nH]1 (centres undefined)
Recorded Result: 0.226
//
Compound: CC1(CS(=O)(=O)N2Cc3ccc(Cl)cc3C(C(=O)Nc3cncc4ccc(C(C)(C)O)cc34)C2)CS(=O)(=O)C1 (centres undefined)
Recorded Result: 2.36

Input line: Can you look up the measured IC50 of COC1(CS(=O)(=O)N2Cc3ccc(Cl)cc3C3(CCN(c4cncc5cc(S(C)(=O)=O)ccc45)C3=O)C2)CC1 (centres undefined) for me?
Output line: 0.413

Input line: For O=C(Cc1cccc(Cl)c1)Nc1cncc2[nH]ncc12 then?
Output line: 21.8

Input line: For CN1CCCN(c2ccc(N(C(=O)c3cocn3)C(C(=O)NCCc3cccc(F)c3)c3cccnc3)cc2)C1=O (centres undefined) then?
Output line: 61

Input line: For O=C(CCc1cccc(Cl)c1)Nc1cncc2ccccc12 then?
Output line: 20.8

Input line: For O=C1NCC(C(=O)Nc2cncc3cc(F)ccc23)c2cc(Cl)ccc21 (centres undefined) then?
Output line: 1.15

Input line: For O=C(Cc1cccc(Cl)c1)Nc1cncc2cc[nH]c12 then?
Output line: 1.9

src = the COVID Moonshot data (paper PMC7615835)
